target.desc: C-C chemokine receptor type 5 (Homo sapiens)
Sequence (P51681 whole entry): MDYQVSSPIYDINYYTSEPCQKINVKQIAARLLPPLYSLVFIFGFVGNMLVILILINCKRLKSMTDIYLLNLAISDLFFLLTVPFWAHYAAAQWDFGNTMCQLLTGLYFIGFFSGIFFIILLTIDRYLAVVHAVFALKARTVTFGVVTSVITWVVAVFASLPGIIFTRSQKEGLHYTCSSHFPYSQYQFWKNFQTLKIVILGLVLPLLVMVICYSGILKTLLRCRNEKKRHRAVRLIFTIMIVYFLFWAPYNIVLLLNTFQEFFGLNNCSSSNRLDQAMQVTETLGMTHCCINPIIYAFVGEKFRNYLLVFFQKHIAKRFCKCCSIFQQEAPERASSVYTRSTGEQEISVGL
method.notes: Binding affinity to C-terminus C9-tagged immobilized CCR5 by SPR analysis
observation.type: Kd (µM)
Reply numerically in µM, unit not repeated.

// solved cases for Kd follow
INSERT INTO results (molecule, target_desc, observed_measurement) VALUES
  ('CC(C)NCc1cc(Br)ccc1OCc1ccccc1', 'C-C chemokine receptor type 5 (Homo sapiens)', 10),
  ('COc1nc(Br)cnc1NS(=O)(=O)c1ccc(Cl)s1', 'C-C chemokine receptor type 5 (Homo sapiens)', 22.6);

Note: attention shifts to another entry.
Any idea what its Kd is? The molecule is Brc1ccc(OCc2ccccc2)c(CNCC2CCCO2)c1 (stereo not drawn)
18.4

These entries and their values trace back to ChEMBL document CHEMBL2010732.
